Examples of molecules with documented Population Tubulin-Different-Phenotype (%) follow.
# Tested on: U2OS
# protocol.description: Multiplex assay against U2OS
# Type: toxicity, cell-based
# measurement.conditions: human, 12 h, 10 µM, compound concentration 10 uM, replicate 1
Give just the number in %; leave the unit off.

molecule: CN(C)C(=O)N[C@H]1CC[C@H](CCN2CCN(c3cccc(Cl)c3Cl)CC2)CC1.Cl [CARIPRAZINE HYDROCHLORIDE]
reported.measurement: 100
--
molecule: COc1cc2nccc(Oc3ccc(NC(=O)Nc4cc(C)on4)c(Cl)c3)c2cc1OC.O
reported.measurement: 100
--
molecule: Cc1csc2c(N[C@@H](C)CN3CCN(S(=O)(=O)c4ccc(Cl)c(Cl)c4)CC3)ncnc12
reported.measurement: 100
--
molecule: CN1CCC[C@@H]1CCO[C@](C)(c1ccccc1)c1ccc(Cl)cc1.O=C(O)/C=C/C(=O)O [CLEMASTINE FUMARATE]
reported.measurement: 83
--
molecule: Cc1nc(-c2ccc(-c3ccc(C(=O)N4CCc5cc6c(cc54)C4(CCN(C)CC4)CO6)cc3)c(C)c2)no1 [SB-224289]
reported.measurement: 98
--
molecule: O=C1NCN(c2ccccc2)C12CCN(CCCOc1ccc(F)cc1)CC2 [SPIRAMIDE]
reported.measurement: 50

Supply Population Tubulin-Different-Phenotype (%) value. Item: CC[C@H](C)C(=O)O[C@H]1C[C@@H](C)C=C2C=C[C@H](C)[C@H](CC[C@@H]3C[C@@H](O)CC(=O)O3)[C@H]21 [LOVASTATIN]
12

Name the recorded Population Tubulin-Different-Phenotype (%) of the item CN1CCCC(n2nc(Cc3ccc(Cl)cc3)c3ccccc3c2=O)CC1.Cl (stereo unspecified) [AZELASTINE HYDROCHLORIDE] in your answer.
97
